# Assayed target: Protein Mdm4 (Homo sapiens) + E3 ubiquitin-protein ligase Mdm2 (Homo sapiens) (UniProt O15151+Q00987)
# Sequence (O15151 whole entry, looked up): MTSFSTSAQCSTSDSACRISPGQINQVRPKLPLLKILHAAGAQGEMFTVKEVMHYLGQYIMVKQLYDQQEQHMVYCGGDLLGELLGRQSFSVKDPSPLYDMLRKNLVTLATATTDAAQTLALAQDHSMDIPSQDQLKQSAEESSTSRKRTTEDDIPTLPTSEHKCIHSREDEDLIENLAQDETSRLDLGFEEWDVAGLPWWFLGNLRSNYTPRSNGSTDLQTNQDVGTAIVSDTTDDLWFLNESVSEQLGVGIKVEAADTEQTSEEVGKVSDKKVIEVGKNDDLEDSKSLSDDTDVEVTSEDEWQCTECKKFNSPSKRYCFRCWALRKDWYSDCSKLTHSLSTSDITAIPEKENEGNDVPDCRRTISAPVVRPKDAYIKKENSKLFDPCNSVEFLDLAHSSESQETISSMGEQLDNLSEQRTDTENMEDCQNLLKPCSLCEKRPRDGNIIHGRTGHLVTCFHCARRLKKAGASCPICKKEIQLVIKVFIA
# Sequence (Q00987 whole entry, looked up): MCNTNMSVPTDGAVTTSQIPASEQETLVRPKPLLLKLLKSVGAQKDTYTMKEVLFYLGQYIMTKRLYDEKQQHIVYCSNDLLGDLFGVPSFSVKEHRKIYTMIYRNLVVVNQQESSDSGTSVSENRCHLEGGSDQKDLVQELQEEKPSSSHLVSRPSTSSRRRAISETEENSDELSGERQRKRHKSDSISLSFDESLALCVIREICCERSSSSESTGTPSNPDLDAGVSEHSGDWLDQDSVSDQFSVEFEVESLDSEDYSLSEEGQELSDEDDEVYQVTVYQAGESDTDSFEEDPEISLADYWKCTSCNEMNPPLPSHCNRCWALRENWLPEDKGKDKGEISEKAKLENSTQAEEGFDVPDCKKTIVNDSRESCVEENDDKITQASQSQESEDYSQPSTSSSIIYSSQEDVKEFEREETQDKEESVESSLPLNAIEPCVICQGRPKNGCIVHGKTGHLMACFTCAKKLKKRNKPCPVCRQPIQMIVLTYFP
# Test summary: inhibitors of human Mdm2-MdmX association, primary screen, cell-based, luminescence, split luciferase, SaOS-2, uHTS (AID 485346)
# Measurement parameters: SaOS-2 split-luciferase Mdm2/MdmX complementation, at 8 µM
The whole screen tested about 330,000 compounds, of which about 10,000 (3%) were called active.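 The calls were made as follows: active = inhibition of at least 50% at 8 µM in the primary screen; inactive = the rest.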 For the sample, actives were picked, then their nearest neighbours and some compounds at random.
Write down the outcome that applies. Available outcomes: active, inactive

CC(=O)N/C(=C\c1ccccc1)C(=O)OC(C)C(=O)N(C)c1ccccc1 (stereo unspecified) : inactive

Kindly provide the recorded test outcome for the following compound: "COC(=O)c1sc(SC)c(S(=O)(=O)C(C)C)c1N/N=C(\C#N)S(=O)(=O)c1ccccn1"
inactive

What did this assay record as the result for "COc1ccc(CNc2ncnc3ccccc23)cc1" ?
inactive

# outcome recorded in this test, key = "COc1ccc(Nc2ncnc3ccc(Br)cc23)c(OC)c1"
active

Per the assay record, what outcome was assigned to "O=C(CCc1ccccc1Cl)Nc1ccc(S(=O)(=O)Nc2nccs2)cc1" ?
inactive

# outcome recorded in this test, key = "CC(=O)c1c(C)[nH]c(C(=O)OCC(=O)NCCC(C)C)c1C"
inactive

Returns: the outcome recorded for "O=P(O)(CN1CCCCCC1)C1Cc2ccccc2C1" in this assay.
inactive

# outcome recorded in this test, key = "O=C(O)CCCCCNc1ncnc2ccc(Br)cc12"
inactive

* * *

# Assayed target: Protein Mdm4 (Homo sapiens) + E3 ubiquitin-protein ligase Mdm2 (Homo sapiens) (UniProt O15151+Q00987)
# Test summary: inhibitors of human Mdm2-MdmX association, primary screen, cell-based, luminescence, split luciferase, SaOS-2, uHTS (AID 485346)
# Measurement parameters: SaOS-2 split-luciferase Mdm2/MdmX complementation, at 8 µM
In all, about 330,000 compounds went through this assay and about 10,000 (3%) were called active.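 How the source made its calls: active means inhibition of at least 50% at 8 µM in the primary screen; inactive means the rest.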 Many of the other results were omitted from the sample, so actives are more common in it than they were.
Permitted responses: yes (active), no (inactive)

Here are 5 molecules together with their reported answers.
O=C(c1cc(=O)c2ccccc2o1)N1CCN(c2ccccc2)CC1 : no
CCN(CC(=O)Nc1ccc(NC(C)=O)cc1)C(=O)C1CC(=O)N(Cc2ccc(C)cc2)C1 (stereo not given) : no
CCN(CC(=O)Nc1ccc(OC)cc1)C(=O)CSCc1ccc(C)cc1 : no
CCOC(=O)N1CCN(C(=O)c2ccc(S(=O)(=O)Nc3cccc(C(F)(F)F)c3)cc2)CC1 : no
CO[C@@H]1[C@@H](OC(N)=O)[C@@H](O)C(Oc2ccc3c(O)c(NC(=O)c4ccc(O)c(CC=C(C)C)c4)c(=O)oc3c2C)OC1(C)C (stereo not given in full) : no

Write down the call the test reported for this molecule. Item: "CC(=O)Nc1ccc(NS(=O)(=O)c2ccc3c(c2)NC(=O)CC(=O)N3)cc1"
no

State the result this test recorded for "COc1ccc(CC(=O)Nc2ccc(C(=O)NC(C)(C)C)cc2)cc1" .
no

Hello, I am checking results. What call was entered for "COCCn1cnc2c1c(=O)n(Cc1ccc(Br)cc1)c(=O)n2Cc1ccccc1" ?
no

Kindly provide the recorded test outcome for the following molecule: "Cc1ccc(-c2nnc(-c3ccc(NC(=O)c4cccs4)cc3)o2)cc1"
yes

Entry COc1c(N2CCN(C(=S)Nc3ccccc3F)C(C)C2)c(F)cc2c(=O)c(C(=O)O)cn(C3CC3)c12 (stereo not given) : call = ?
no

Recorded call for COc1cc2c(cc1OC)CN(C(C)C(=O)Nc1cccc(S(=O)(=O)N3CCOCC3)c1)CC2 (stereo not given) ?
no
